target.or.test.system: T1, Pin3, Q06449
T1 sequence (Q06449 53-122, looked up): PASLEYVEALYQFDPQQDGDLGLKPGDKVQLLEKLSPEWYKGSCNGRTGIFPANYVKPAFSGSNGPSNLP
test.description: SPOT array
condition.label: median of control spots 2171
Each record is given yes (1) if its reported SPOT intensity is strictly below 1. Records at or above 1 are given no (0).

{"binder": "KRRTSLFPWLHKPGI", "class.label": "yes (1)"}
{"binder": "AATTSTPPLPRRRAT", "class.label": "no (0)"}
{"binder": "FTLPPPPPPPGLDEL", "class.label": "yes (1)"}
{"binder": "YSRKKLPVVLSKMTL", "class.label": "no (0)"}
{"binder": "DAPASKPSVPPRNYF", "class.label": "no (0)"}
{"binder": "AIPPPVPNRPGGTTN", "class.label": "no (0)"}
{"binder": "TTNRGPPPLPPRANV", "class.label": "no (0)"}
{"binder": "PALPSLPPPPLLNVD", "class.label": "yes (1)"}
{"binder": "NQARKPFLLPATELS", "class.label": "no (0)"}
{"binder": "RSLRKRPTSPSISGS", "class.label": "no (0)"}
{"binder": "AVPPPPPPPPLPESL", "class.label": "yes (1)"}
{"binder": "VQKRKLPLPGSIASA", "class.label": "yes (1)"}
{"binder": "NFLRLLIGLPSQNEL", "class.label": "no (0)"}
{"binder": "TIRRRAPLSLLESHT", "class.label": "no (0)"}
{"binder": "RAPPPVPKKPSSRIA", "class.label": "no (0)"}
{"binder": "NRARYLPQNPDIIAG", "class.label": "no (0)"}
{"binder": "QFDLKMPSKPIHNLK", "class.label": "no (0)"}
{"binder": "PHNPSPFFPPPDFND", "class.label": "yes (1)"}
{"binder": "TKPTPPPKPSHLKPK", "class.label": "yes (1)"}
{"binder": "VATSTSPKLPPRGKQ", "class.label": "no (0)"}
{"binder": "WTQRRGPLVVYAEDN", "class.label": "no (0)"}
{"binder": "PPLPRAPPVPPATFE", "class.label": "yes (1)"}
{"binder": "KWVRRPKLMTPLTFS", "class.label": "no (0)"}
{"binder": "FYHRPAPKPPVTKKV", "class.label": "no (0)"}
{"binder": "KNPRRQLQIPRQQPS", "class.label": "no (0)"}
{"binder": "RLSRLLLSLPPESFT", "class.label": "no (0)"}
{"binder": "GLRRARYKFPGQQKI", "class.label": "no (0)"}
{"binder": "VNFRRIPTGPDSPPT", "class.label": "yes (1)"}
{"binder": "QLMKNLPKIPLLNDI", "class.label": "no (0)"}
